Tested on: Bacillus subtilis
Experiment: Antibacterial activity against Bacillus subtilis ATCC 6633 after 24 hr by serial dilution method
Format: functional
Details: ATCC 6633, 24 h
measured quantity: log10 MIC (log10 of the value in µg/mL)
Please note: log10 values; quantity MIC; unit µg/mL.

CCN(CC)C(=O)Sc1nnc(CCCCc2nnc(SC(=O)N(CC)CC)n2-c2cccc(C)c2)n1-c1cccc(C)c1	1.40

q: Given the entry "CCN(CC)C(=O)Sc1nnc(CCCCc2nnc(SC(=O)N(CC)CC)n2-c2ccccc2)n1-c1ccccc1" , report its measured log10 MIC.
a: 1.40

q: Now try "CCOC(=O)CSc1nnc(CCCCc2nnc(SCC(=O)OCC)n2-c2cccc(C)c2)n1-c1cccc(C)c1" .
a: 1.70

q: Thanks! And "CCN(CC)C(=O)Sc1nnc(CCCCc2nnc(SC(=O)N(CC)CC)n2-c2ccc(C)cc2)n1-c1ccc(C)cc1" ?
a: 1.10

q: Also check "CCOC(=O)CSc1nnc(CCCCc2nnc(SCC(=O)OCC)n2-c2ccc(OCC)cc2)n1-c1ccc(OCC)cc1"
a: 1.40

q: Likewise for "CCOC(=O)CSc1nnc(CCCCc2nnc(SCC(=O)OCC)n2C2CCCCC2)n1C1CCCCC1" ?
a: 2.00

q: Note, next up: "CCOc1ccc(-n2c(CCCCc3nnc(SCC(=O)NN)n3-c3ccc(OCC)cc3)nnc2SCC(=O)NN)cc1"
a: 0.80

q: Cool, now "CCOC(=O)CSc1nnc(CCCCc2nnc(SCC(=O)OCC)n2-c2ccc(C)cc2)n1-c1ccc(C)cc1"
a: 2.00
